Exercise: state measured hERG current change (%, negative = inhibition) at 10uM for each of the compounds provided.
Molecular target: human ether-à-go-go-related gene (hERG) potassium channel (human, UniProt Q12809);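 note: peak tail current of the secondary pulse compared with the same well before compound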
Sequence (Q12809 whole entry, looked up): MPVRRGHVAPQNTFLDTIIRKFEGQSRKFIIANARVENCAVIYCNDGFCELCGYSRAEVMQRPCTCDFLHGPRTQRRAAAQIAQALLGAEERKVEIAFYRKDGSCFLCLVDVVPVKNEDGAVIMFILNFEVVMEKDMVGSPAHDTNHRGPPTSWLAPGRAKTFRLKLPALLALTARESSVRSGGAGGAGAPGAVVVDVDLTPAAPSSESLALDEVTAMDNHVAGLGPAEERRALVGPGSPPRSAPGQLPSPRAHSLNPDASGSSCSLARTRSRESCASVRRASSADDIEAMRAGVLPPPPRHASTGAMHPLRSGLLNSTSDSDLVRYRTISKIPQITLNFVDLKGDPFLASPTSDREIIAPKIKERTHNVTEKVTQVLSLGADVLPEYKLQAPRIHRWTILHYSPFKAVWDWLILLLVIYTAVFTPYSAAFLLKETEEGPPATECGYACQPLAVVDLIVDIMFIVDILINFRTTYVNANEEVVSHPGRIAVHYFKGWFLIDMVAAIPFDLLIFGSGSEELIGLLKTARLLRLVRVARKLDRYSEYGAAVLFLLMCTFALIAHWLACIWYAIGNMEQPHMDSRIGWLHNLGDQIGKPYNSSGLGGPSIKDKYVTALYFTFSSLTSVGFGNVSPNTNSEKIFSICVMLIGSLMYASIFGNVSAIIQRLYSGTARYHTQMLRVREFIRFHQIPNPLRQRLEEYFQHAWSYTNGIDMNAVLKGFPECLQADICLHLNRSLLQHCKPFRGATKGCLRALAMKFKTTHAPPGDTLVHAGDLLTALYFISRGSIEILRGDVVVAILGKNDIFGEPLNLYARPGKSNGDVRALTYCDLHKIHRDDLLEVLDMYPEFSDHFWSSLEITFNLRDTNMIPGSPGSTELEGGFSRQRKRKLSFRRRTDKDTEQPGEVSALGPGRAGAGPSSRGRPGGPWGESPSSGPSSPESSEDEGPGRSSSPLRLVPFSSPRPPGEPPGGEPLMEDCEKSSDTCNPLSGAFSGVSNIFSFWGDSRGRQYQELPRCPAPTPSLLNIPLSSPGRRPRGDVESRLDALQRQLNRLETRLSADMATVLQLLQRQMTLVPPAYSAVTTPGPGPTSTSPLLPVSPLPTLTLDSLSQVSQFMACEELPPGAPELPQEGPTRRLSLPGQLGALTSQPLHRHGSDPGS
Test: primary screen, population patch clamp on CHO cells stably expressing hERG; higher = less effect of the substance
Among all 310,000 compounds or so, about 14,000 (4.5%) showed an effect of 50% or more. The effect is printed as a negative number. This is one part of a sample in which strong results are shown more often than they occur.
Field: value (include unit after the number)

Query: Can you look up the measured hERG current change (%, negative = inhibition) at 10uM of "Cc1cc(=O)oc2ccc(OCc3ccccc3)cc12" for me?
Result: 5.11%

Query: Entry under review: "COc1ccc(NC(=O)CNS(=O)(=O)c2ccccc2)cc1Cl" . Reported hERG current change (%, negative = inhibition) at 10uM?
Result: 4.28%

Query: Reported hERG current change (%, negative = inhibition) at 10uM, compound CN(C)C(C(=O)NC1CCCCC1)c1ccc(Cl)cc1 (centres unmarked) : ____
Result: 4.27%

Query: # hERG current change (%, negative = inhibition) at 10uM lookup, item "COc1ccc(S(=O)(=O)NC2CC(C)(C)NC(C)(C)C2)c2ccccc12"
Result: 6.47%

Query: What value of hERG current change (%, negative = inhibition) at 10uM has been reported for the following compound? "CCOC(=O)c1cc(-c2ccc(OC(F)F)cc2)nc2nc(SC)[nH]c(=O)c12"
Result: -42.7%

Query: Which measured hERG current change (%, negative = inhibition) at 10uM value corresponds to "Cc1cc(-c2ccccc2)nc(N/N=C/c2ccco2)n1" ?
Result: -0.804%

Query: Recorded hERG current change (%, negative = inhibition) at 10uM for CC1CC(C)CN(CC(=O)N2CCCc3c2c(=O)oc2ccc(OCc4ccccc4)cc32)C1 (centres unmarked) , please?
Result: -4.71%

Query: Which hERG current change (%, negative = inhibition) at 10uM value is on record for "COc1ccccc1NC(=S)N(c1ccccc1)C(C)C" ?
Result: 6.18%

Query: Give the measured hERG current change (%, negative = inhibition) at 10uM of COc1ccccc1NC(=O)C(C)NS(=O)(=O)c1ccc(Cl)cc1 (centres unmarked) .
Result: -0.716%

Query: I would be grateful if you could share the reported hERG current change (%, negative = inhibition) at 10uM for "CC(=O)Nc1ccc(S(=O)(=O)NCCc2ccc(F)cc2)cc1" .
Result: -10.7%

Query: Give the measured hERG current change (%, negative = inhibition) at 10uM of "O=C(NCCS(=O)(=O)N1CCN(c2ccccc2F)CC1)c1cc(=O)c2ccccc2o1" .
Result: 15%

Query: Which hERG current change (%, negative = inhibition) at 10uM value belongs to "O=C(N[C@@H](Cc1ccccc1)C(=O)OCC(=O)N1CCOCC1)c1cccs1" ?
Result: -9.98%

Query: Tell me the measured hERG current change (%, negative = inhibition) at 10uM of "O=C(CN1CCCC1)N1CCCc2c1c(=O)oc1ccc(OCc3ccccc3)cc21" , please.
Result: -65.6%

Query: // hERG current change (%, negative = inhibition) at 10uM lookup, key: "NC(=O)Cn1nnc(-c2ccc(CN3CCCCC3)cc2)n1"
Result: 21.6%

Query: Could you tell me which hERG current change (%, negative = inhibition) at 10uM is on file for "CCNS(=O)(=O)c1ccc(NC(=O)Nc2cccc(OC)c2)cc1" ?
Result: 8.01%

Query: Entry COc1cccc(NC(=O)N(Cc2cc3cc(C)cc(C)c3[nH]c2=O)CC2COCCO2)c1 (centres unmarked) has what hERG current change (%, negative = inhibition) at 10uM?
Result: 4.85%

Query: Name the reported hERG current change (%, negative = inhibition) at 10uM value associated with the compound "COc1ccc(NC(=O)CCNS(=O)(=O)c2ccc(NC(C)=O)cc2)cc1Cl"
Result: 22.8%

Query: Entry under review: "COc1ccccc1NC(C)=[N+](C)CCNS(=O)(=O)c1ccc(Cl)cc1.[I-]" . Reported hERG current change (%, negative = inhibition) at 10uM?
Result: -58.7%

Query: What does the record list as hERG current change (%, negative = inhibition) at 10uM for "CC(Nc1ccc(F)cc1)=[N+](C)CCNS(=O)(=O)c1ccc(Cl)cc1.[I-]" ?
Result: -68.4%

Query: So what does the record say about hERG current change (%, negative = inhibition) at 10uM for "COc1ccccc1NS(=O)(=O)c1ccc(Cl)cc1" ?
Result: -19.5%
